target: CDK2/Cyclin E (Homo sapiens); construct: His; made in house; host or cells: Sf9 insect cells (baculovirus); assay: CDK2/cyclin E kinase assay (GST-Rb phosphorylation); assay type: biochemical; conditions: Table 3; read-out: Average IC50 CDK2 cyclin E1;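 note: enzyme source: His-tagged CDK2/cyclin E complex co-expressed recombinantly in Sf9 insect cells using baculovirus constructs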
pIC50: −log10 of the molar value.
quantity-measured: pIC50

COc1ccc(Nc2nccc(-c3sc(C)nc3C)n2)cc1OC
7.48
Cc1nc(N)sc1-c1ccnc(Nc2ccc(CCO)cc2)n1
6.41
Cc1nc(C)c(-c2cc(Br)nc(Nc3cccc([N+](=O)[O-])c3)n2)s1
6.24
Cc1nc(N(C)C)sc1-c1ccnc(Nc2cccc([N+](=O)[O-])c2)n1
6.32
Cc1nc(C)c(-c2ccnc(Nc3ccc(CCO)cc3)n2)s1
6.33
Cc1nc(N)sc1-c1ccnc(Nc2cccc(Cl)c2)n1
7.74

(I) Cc1nc(N)sc1-c1ccnc(Nc2ccc(C(F)(F)F)cc2)n1
(II) CCN(CCO)c1ccc(Nc2nccc(-c3sc(C)nc3C)n2)cc1
(III) COC(=O)c1ccc(Nc2nccc(-c3sc(C)nc3C)n2)cc1
### Prompt Rank entries according to their pIC50, from the largest number down. To answer, arrange all of the labels according to the requested order.
### Response I, II, III
(I: 6.17, II: 5.52, III: 5.12)
